Recorded values, source paper PMC9033141.

Measured melting point of individual entries
value type: melting point

| compound | result value |
| --- | --- |
| NS(=O)(=O)c1ccc(NCC(CC(=O)NN=Cc2ccc([N+](=O)[O-])cc2)C(=O)NN=Cc2ccc([N+](=O)[O-])cc2)c(Cl)c1 (stereo not drawn) [Compound 17b] | 220 to 221 °C |
| NS(=O)(=O)c1ccc(NCC(CC(=O)NN=Cc2ccc(F)cc2)C(=O)NN=Cc2ccc(F)cc2)cc1 (stereo not drawn) [Compound 13a] | 153 to 154 °C |
| NS(=O)(=O)c1ccc(NCC(CC(=O)NN=Cc2cccc(O)c2)C(=O)NN=Cc2cccc(O)c2)cc1 (stereo not drawn) | 192 to 193 °C |
| NS(=O)(=O)c1ccc(NCC(CC(=O)NN=Cc2ccccc2[N+](=O)[O-])C(=O)NN=Cc2ccccc2[N+](=O)[O-])c(Cl)c1 (stereo not drawn) [Compound 15b] | 178 to 179 °C |
| Cc1csc(N(CCC(=O)NN=Cc2ccccc2)c2ccc(S(N)(=O)=O)cc2)n1 | 170 to 171 °C |
| CCC(C)=NN1C(=O)CC(CNc2ccc(S(N)(=O)=O)cc2Cl)C1=O (stereo not drawn) | 92 to 93 °C |
| NS(=O)(=O)c1ccc(NCC(CC(=O)NN=Cc2cccc([N+](=O)[O-])c2)C(=O)NN=Cc2cccc([N+](=O)[O-])c2)cc1 (stereo not drawn) [Compound 16a] | 218 to 219 °C |
| Cn1c(CC(CNc2ccc(S(N)(=O)=O)cc2)c2n[nH]c(=S)n2C)n[nH]c1=S (stereo not drawn) [Compound 24a] | 170 to 171 °C |
| Cc1ccc(C)n1NC(=O)CC(CNc1ccc(S(N)(=O)=O)cc1Cl)C(=O)Nn1c(C)ccc1C (stereo not drawn) [Compound 19b] | 232 to 233 °C |
| NS(=O)(=O)c1ccc(NCC(CC(=O)NN=Cc2cccc(Cl)c2)C(=O)NN=Cc2cccc(Cl)c2)cc1 (stereo not drawn) [Compound 11a] | 190 to 191 °C |
| CCOC(=O)c1sc(N(CCC(=O)NN)c2ccc(S(N)(=O)=O)cc2)nc1C | 206 to 207 °C |
| NS(=O)(=O)c1ccc(NCC(CC(=O)NN=Cc2ccccc2Cl)C(=O)NN=Cc2ccccc2Cl)c(Cl)c1 (stereo not drawn) [Compound 10b] | 203 to 204 °C |
| NS(=O)(=O)c1ccc(NCC(CC(=O)NN=Cc2ccc(C(=O)O)cc2)C(=O)NN=Cc2ccc(C(=O)O)cc2)cc1 (stereo not drawn) [Compound 18a] | 308 to 309 °C |
| NS(=O)(=O)c1ccc(NCC(CC(=O)NN=Cc2ccc(Cl)cc2)C(=O)NN=Cc2ccc(Cl)cc2)cc1 (stereo not drawn) [Compound 12a] | 179 to 180 °C |
| NS(=O)(=O)c1ccc(NCC(CC(=O)NN=Cc2ccccc2Cl)C(=O)NN=Cc2ccccc2Cl)cc1 (stereo not drawn) [Compound 10a] | 174 to 175 °C |
| NS(=O)(=O)c1ccc(NCC(CC(=O)NN=Cc2ccccc2)C(=O)NN=Cc2ccccc2)cc1 (stereo not drawn) | 208 to 209 °C |
| CC(=NNC(=O)CC(CNc1ccc(S(N)(=O)=O)cc1)C(=O)NN=C(C)c1ccccc1)c1ccccc1 (stereo not drawn) | 162 to 163 °C |
| NS(=O)(=O)c1ccc(NCC(CC(=O)NNC(=S)Nc2ccccc2)C(=O)NNC(=S)Nc2ccccc2)cc1 (stereo not drawn) [Compound 23a] | 136 to 137 °C |
